The molecules listed here are annotated with their pIC50.
# Test system: MCF-7 cells
# procedure_details: cells
# Type: cell-based, human
# condition_set: Homo sapiens, MCF7; MTT, 24 h; read-out: Cytotoxicity, IC50, MCF-7
pIC50: −log10 of the molar value.
measurement_type: pIC50

- molecule: "CO[C@@H]1[C@@H](O)[C@H](O[C@@H]2[C@@H](O)[C@H](O[C@H]3[C@H](O)[C@@H](O[C@@H]4OC[C@@H](O)[C@H](O)[C@H]4O)[C@H](O[C@H]4[C@H](O[C@H]5CC[C@]6(C)C7CC[C@]8(C)[C@@H]([C@@](C)(O)[C@H](O)/C=C/C(C)(C)O)CC[C@@]8(C)C7=CC[C@H]6C5(C)C)OC[C@@H](OS(=O)(=O)O)[C@@H]4O)O[C@@H]3C)O[C@H](COS(=O)(=O)O)[C@H]2O)O[C@H](COS(=O)(=O)O)[C@H]1O (some centres unmarked) [Conicospermiumoside A7-2 (5)]"
  qual: "<"
  reported_result: 4.30
- molecule: "CO[C@@H]1[C@@H](O)[C@H](O[C@@H]2[C@@H](O)[C@H](O[C@H]3[C@H](O)[C@@H](O[C@@H]4OC[C@@H](O)[C@H](O)[C@H]4O)[C@H](O[C@H]4[C@H](O[C@H]5CC[C@]6(C)C7=CC[C@]8(C)[C@@H]([C@@](C)(O)C(=O)CC=C(C)C)CC[C@@]8(C)C7CC[C@H]6C5(C)C)OC[C@@H](OS(=O)(=O)[O-])[C@@H]4O)O[C@@H]3C)O[C@H](COS(=O)(=O)[O-])[C@H]2O)O[C@H](COS(=O)(=O)[O-])[C@H]1O.[Na+].[Na+].[Na+] (some centres unmarked) [Conicospermiumoside A7-1 (4)]"
  qual: "<"
  reported_result: 4.30
- molecule: "COC1C(O)C(CO)OC(OC2C(O)COC(OC3C(C)OC(OC4C(OC5CCC6(C)C7CCC89C(=O)OC(C)(CC(=O)CC(C)C)C8C(OC(C)=O)CC9(C)C7=CCC6C5(C)C)OCC(OS(=O)(=O)O)C4O)C(O)C3O)C2O)C1O (centres unmarked) [Okhotoside A1-1 (7), okhotoside A1-1]"
  qual: "="
  reported_result: 4.96
- molecule: "CO[C@@H]1[C@@H](O)[C@H](O[C@@H]2[C@@H](O)[C@H](O[C@H]3[C@H](O)[C@@H](O[C@@H]4OC[C@@H](O)[C@H](O)[C@H]4O)[C@H](O[C@H]4[C@H](O[C@H]5CC[C@]6(C)C7CC[C@]8(C)[C@@H]([C@@](C)(O)[C@H](O)CC=C(C)C)CC[C@@]8(C)C7=CC[C@H]6C5(C)C)OC[C@@H](OS(=O)(=O)O)[C@@H]4O)O[C@@H]3C)O[C@H](COS(=O)(=O)O)[C@H]2O)O[C@H](COS(=O)(=O)O)[C@H]1O (some centres unmarked) [Frondoside A7-4 (14), frondoside A7-4]"
  qual: "="
  reported_result: 4.48
- molecule: "CO[C@@H]1[C@@H](O)[C@H](O[C@@H]2[C@@H](O)[C@H](O[C@H]3[C@H](O)[C@@H](O[C@@H]4OC[C@@H](O)[C@H](O)[C@H]4O)[C@H](O[C@H]4[C@H](O[C@H]5CC[C@]6(C)C7CC[C@]8(C)[C@@H]([C@@](C)(O)[C@H](O)CC=C(C)C)CC[C@@]8(C)C7=CC[C@H]6C5(C)C)OC[C@@H](OS(=O)(=O)[O-])[C@@H]4O)O[C@@H]3C)O[C@H](COS(=O)(=O)[O-])[C@H]2O)O[C@H](CO)[C@H]1O.[Na+].[Na+] (some centres unmarked) [Conicospermiumoside A3-1 (1)]"
  qual: "="
  reported_result: 4.38

* * *

The molecules listed here are annotated with their pIC50.
# System: MDA-MB-231 cells
# procedure_details: cells
# Type: cell-based, human
# condition_set: Homo sapiens, MDA-MB-231, 48 h; read-out: Cytotoxicity, IC50, 48 h, MDA-MB-231
pIC50: −log10 of the molar value.

- molecule: "CO[C@@H]1[C@@H](O)[C@H](O[C@@H]2[C@@H](O)[C@H](O[C@H]3[C@H](O)[C@@H](O[C@@H]4OC[C@@H](O)[C@H](O)[C@H]4O)[C@H](O[C@H]4[C@H](O[C@H]5CC[C@]6(C)C7=CC[C@]8(C)[C@@H]([C@@](C)(O)C(=O)CC=C(C)C)CC[C@@]8(C)C7CC[C@H]6C5(C)C)OC[C@@H](OS(=O)(=O)[O-])[C@@H]4O)O[C@@H]3C)O[C@H](COS(=O)(=O)[O-])[C@H]2O)O[C@H](COS(=O)(=O)[O-])[C@H]1O.[Na+].[Na+].[Na+] (stereo partly drawn) [Conicospermiumoside A7-1 (4)]"
  pIC50: 4.82
- molecule: "CO[C@@H]1[C@@H](O)[C@H](O[C@@H]2[C@@H](O)[C@H](O[C@H]3[C@H](O)[C@@H](O[C@@H]4OC[C@@H](O)[C@H](O)[C@H]4O)[C@H](O[C@H]4[C@H](O[C@H]5CC[C@]6(C)C7CC[C@]8(C)[C@@H]([C@@](C)(O)[C@H](O)CC=C(C)C)CC[C@@]8(C)C7=CC[C@H]6C5(C)C)OC[C@@H](OS(=O)(=O)[O-])[C@@H]4O)O[C@@H]3C)O[C@H](COS(=O)(=O)[O-])[C@H]2O)O[C@H](CO)[C@H]1O.[Na+].[Na+] (stereo partly drawn) [Conicospermiumoside A3-1 (1)]"
  pIC50: 5.60
- molecule: "CO[C@@H]1[C@@H](O)[C@H](O[C@@H]2[C@@H](O)[C@H](O[C@H]3[C@H](O)[C@@H](O[C@@H]4OC[C@@H](O)[C@H](O)[C@H]4O)[C@H](O[C@H]4[C@H](O[C@H]5CC[C@]6(C)C7CC[C@]8(C)[C@@H]([C@@](C)(O)C(=O)CC=C(C)C)CC[C@@]8(C)C7=CC[C@H]6C5(C)C)OC[C@@H](OS(=O)(=O)[O-])[C@@H]4O)O[C@@H]3C)O[C@H](COS(=O)(=O)[O-])[C@H]2O)O[C@H](CO)[C@H]1O.[Na+].[Na+] (stereo partly drawn) [Conicospermiumoside A3-3 (3)]"
  pIC50: 5.00

* * *

# System: MCF-7 cells
# procedure_details: cells
# Assay type: cell-based, human
# condition_set: Homo sapiens, MCF7; MTT, 24 h; read-out: Cytotoxicity, IC50, MCF-7
The molecules listed here are annotated with their IC50.
measurement_type: IC50 (µM)

- molecule: "C=C(C)CCC[C@]1(C)OC(=O)C23CC[C@H]4C(=CC[C@H]5C(C)(C)C(O[C@@H]6OC[C@@H](OS(=O)(=O)O)[C@H](O)[C@H]6O[C@@H]6O[C@H](CO)[C@@H](O[C@@H]7O[C@H](COS(=O)(=O)O)[C@@H](O)[C@H](O[C@@H]8O[C@H](CO)[C@@H](O)[C@H](OC)[C@H]8O)[C@H]7O)[C@H](O)[C@H]6O[C@@H]6OC[C@@H](O)[C@H](O)[C@H]6O)CC[C@]45C)[C@]2(C)C[C@H](OC(C)=O)C31 (some centres unmarked) [Okhotoside B2 (9), okhotoside B2]"
  measurement_target: "MCF-7 cells"
  qual: "="
  reported_result: 39.8
- molecule: "CO[C@@H]1[C@@H](O)[C@H](O[C@@H]2[C@@H](O)[C@H](O[C@H]3[C@H](O)[C@@H](O[C@@H]4OC[C@@H](O)[C@H](O)[C@H]4O)[C@H](O[C@H]4[C@H](O[C@H]5CC[C@]6(C)C7CC[C@]8(C)[C@@H]([C@@](C)(O)[C@@H](CC=C(C)C)OC(C)=O)CC[C@@]8(C)C7=CC[C@H]6C5(C)C)OC[C@@H](OS(=O)(=O)O)[C@@H]4O)O[C@@H]3C)O[C@H](COS(=O)(=O)O)[C@H]2O)O[C@H](CO)[C@H]1O (some centres unmarked) [Conicospermiumoside A3-2 (2)]"
  measurement_target: "MCF-7 cells"
  qual: ">"
  reported_result: 50

* * *

The compounds listed here are annotated with their IC50.
# Tested on: MDA-MB-231 cells
# procedure_details: cells
# Format: cell-based, human
# condition_set: Homo sapiens, MDA-MB-231; MTT, 24 h; read-out: Cytotoxicity, IC50, MDA-MB-231

- compound: "CO[C@@H]1[C@@H](O)[C@H](O[C@@H]2[C@@H](O)[C@H](O[C@H]3[C@H](O)[C@@H](O[C@@H]4OC[C@@H](O)[C@H](O)[C@H]4O)[C@H](O[C@H]4[C@H](O[C@H]5CC[C@]6(C)C7CC[C@]8(C)[C@@H]([C@@](C)(O)[C@H](O)CC=C(C)C)CC[C@@]8(C)C7=CC[C@H]6C5(C)C)OC[C@@H](OS(=O)(=O)[O-])[C@@H]4O)O[C@@H]3C)O[C@H](COS(=O)(=O)[O-])[C@H]2O)O[C@H](CO)[C@H]1O.[Na+].[Na+] (stereo partly shown) [Conicospermiumoside A3-1 (1)]"
  measurement_target: "MDA-MB-231 cells"
  unit_abbrev: "µM"
  IC50: 5.93
- compound: "CO[C@@H]1[C@@H](O)[C@H](O[C@@H]2[C@@H](O)[C@H](O[C@H]3[C@H](O)[C@@H](O[C@@H]4OC[C@@H](O)[C@H](O)[C@H]4O)[C@H](O[C@H]4[C@H](O[C@H]5CC[C@]6(C)C7CC[C@]8(C)[C@@H]([C@@](C)(O)[C@H](O)CC=C(C)C)CC[C@@]8(C)C7=CC[C@H]6C5(C)C)OC[C@@H](OS(=O)(=O)O)[C@@H]4O)O[C@@H]3C)O[C@H](COS(=O)(=O)O)[C@H]2O)O[C@H](COS(=O)(=O)O)[C@H]1O (stereo partly shown) [Frondoside A7-4 (14), frondoside A7-4]"
  measurement_target: "MDA-MB-231 cells"
  unit_abbrev: "µM"
  IC50: 8.11
- compound: "CO[C@@H]1[C@@H](O)[C@H](O[C@@H]2[C@@H](O)[C@H](O[C@H]3[C@H](O)[C@@H](O[C@@H]4OC[C@@H](O)[C@H](O)[C@H]4O)[C@H](O[C@H]4[C@H](O[C@H]5CC[C@]6(C)C7CC[C@]8(C)[C@@H]([C@@](C)(O)C(=O)CC=C(C)C)CC[C@@]8(C)C7=CC[C@H]6C5(C)C)OC[C@@H](OS(=O)(=O)[O-])[C@@H]4O)O[C@@H]3C)O[C@H](COS(=O)(=O)[O-])[C@H]2O)O[C@H](CO)[C@H]1O.[Na+].[Na+] (stereo partly shown) [Conicospermiumoside A3-3 (3)]"
  measurement_target: "MDA-MB-231 cells"
  unit_abbrev: "µM"
  IC50: 5.62
- compound: "CO[C@@H]1[C@@H](O)[C@H](O[C@@H]2[C@@H](O)[C@H](O[C@H]3[C@H](O)[C@@H](O[C@@H]4OC[C@@H](O)[C@H](O)[C@H]4O)[C@H](O[C@H]4[C@H](OC5CC[C@]6(C)[C@H]7CCC89C(=O)O[C@@](C)(CCCC(C)C)C8[C@@H](OC(C)=O)C[C@@]9(C)C7=CC[C@H]6C5(C)C)OC[C@@H](OS(=O)(=O)O)[C@@H]4O)O[C@@H]3C)OC[C@H]2O)O[C@H](CO)[C@H]1O (stereo partly shown) [Frondoside A (10), frondoside A]"
  measurement_target: "MDA-MB-231 cells"
  unit_abbrev: "µM"
  IC50: 2.79

FYI, the data here is from paper PMC11676834.
